- Test system: C57BL/6J mice
- protocol notes: Antifeeding activity (high fat diet intake up to 4 hours)
- Assay type: in vivo
- conditions used: Mus musculus, male C57BL/6J mice, 5 mg/kg oral, food ingested up to 4 hours, read-out: Antifeeding rate (5 mg/kg)
- Protocol: 7 to 10 weeks-old male C57BL/6J mice were fasted overnight, and the test compound suspended in 0.2% carboxymethylcellulose solution was orally administered. […] An amount of food ingested up to 4 hours was measured, and a lowering rate (an antifeeding rate) of the amount of food ingested in the Test compound administered group was calculated as compared to that of the solvent control group as a control.
Reported inhibition in vivo at 5 mg/kg values are given for each entry in this list.
assay readout: inhibition in vivo at 5 mg/kg

> print(dat)
                                query.smiles  assay.result
 1  CC(C)(COc1ccc(-c2ccc(-c3ncc(C4(C(F)(F)F)CC4)[nH]3)c(F)c2)cn1)C(=O)O           72%
 2  Cc1cc(OCC2(C(=O)O)CCC2)ncc1-c1ccc(-c2ncc(C(F)(F)F)[nH]2)nc1           92%
 3  CCC(CC)(COc1cc(C)c(-c2ccc(-c3ncc(C(F)(F)F)[nH]3)c(F)c2)cn1)C(=O)O           74%
 4  Cc1cc(OCC2(C(=O)O)CC2)ncc1-c1cnc(-c2ncc(C(F)(F)F)[nH]2)c(F)c1           62%
 5  Cc1cc(OCC(C)(C)C(=O)O)ncc1-c1ccc(-c2ncc(CC3CC3)[nH]2)cc1           62%
 6  CC(C)(COc1ccc(-c2ccc(-c3ncc(C(F)(F)F)[nH]3)cn2)cc1F)C(=O)O           82%
 7  Cc1cc(OCC(C)(C)C(=O)O)ccc1-c1ccc(-c2ncc(C(F)(F)F)[nH]2)cn1           76%
 8  Cc1cc(OCC(C)(C)C(=O)O)ncc1-c1ccc(-c2ncc(C(F)(F)F)[nH]2)cn1           65%
 9  Cc1cc(-c2ccc(OCC(C)(C)C(=O)O)cc2)ncc1-c1ncc(C2(C(F)(F)F)CC2)[nH]1           56%
10  CC(C)(COc1ccc(-c2ccc(-c3ncc(C(F)(F)F)[nH]3)c(F)c2)cn1)C(=O)O           61%
11  Cc1nc(OCC(C)(C)C(=O)O)ccc1-c1ccc(-c2ncc(C(F)(F)F)[nH]2)cn1           62%
12  Cc1cc(OCC2(C(=O)O)CCC2)ncc1-c1cnc(-c2ncc(C(F)(F)F)[nH]2)c(F)c1           83%
13  Cc1cc(OCC(C)(C)C(=O)O)ncc1-c1ccc(-c2ncc(C(C)(C)C(F)(F)F)[nH]2)c(F)c1           62%
14  Cc1cc(OCC2(C(=O)O)CC2)ncc1-c1ccc(-c2ncc(C(F)(F)F)[nH]2)nc1           47%
15  Cc1nc(OCC(C)(C)C(=O)O)ccc1-c1ccc(-c2ncc(C(F)(F)F)[nH]2)cc1           60%
16  CC(C)(COc1ncc(-c2ccc(-c3ncc(C(F)(F)F)[nH]3)c(Cl)c2)cc1F)C(=O)O           42%
